Molecular target: human Farnesoid X Receptor (FXR) ligand binding domain (GST-FXR LBD) (Homo sapiens)
Construct: purchased Invitrogen
Sequence (Q96RI1 193-472 isoform Q96RI1-2): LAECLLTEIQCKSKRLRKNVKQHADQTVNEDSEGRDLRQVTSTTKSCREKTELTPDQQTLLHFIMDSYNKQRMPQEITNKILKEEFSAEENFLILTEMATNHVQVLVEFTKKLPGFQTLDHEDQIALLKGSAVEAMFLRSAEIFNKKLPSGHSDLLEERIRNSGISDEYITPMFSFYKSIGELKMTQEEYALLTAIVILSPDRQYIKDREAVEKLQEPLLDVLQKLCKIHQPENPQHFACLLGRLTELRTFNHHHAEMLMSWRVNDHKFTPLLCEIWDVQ
Assay: Human GST-FXR LBD co-activator interaction assay (HTRF)
Format: biochemical
Conditions: GST-FXR LBD / biotin-SRC-1 peptide FRET; response relative to GW4064; read-out: FXR Co-activator interaction assay (EC50)
ASSAY_METRIC: EC50 (nM)
Give your result in nM as a bare value.

Data request: Returns the measured EC50 for the input compound. Input: COC(=O)c1ccc(N2C3CC[C@H]2C[C@H](OCc2c(-c4ccccc4C(F)(F)F)noc2C2CC2)C3)nc1 [Example 18-6A]
Data returned: 50

Data request: Also check COC(=O)c1cnc(N2C3CC[C@H]2CC(OCc2c(-c4ccccc4C(F)(F)F)noc2C2CC2)C3)cn1 (stereo partly shown) [Example 21-3A]
Data returned: 180

Data request: Also check Cc1cc(C(=O)O)nc(N2C3CC[C@H]2C[C@H](OCc2c(-c4ccccc4OC(F)(F)F)noc2C2CC2)C3)n1 [Example 18-7B]
Data returned: 2

====

Molecular target: human Farnesoid X Receptor (FXR) ligand binding domain (GST-FXR LBD) (Homo sapiens)
Construct: purchased Invitrogen
Sequence (Q96RI1 193-472 isoform Q96RI1-2): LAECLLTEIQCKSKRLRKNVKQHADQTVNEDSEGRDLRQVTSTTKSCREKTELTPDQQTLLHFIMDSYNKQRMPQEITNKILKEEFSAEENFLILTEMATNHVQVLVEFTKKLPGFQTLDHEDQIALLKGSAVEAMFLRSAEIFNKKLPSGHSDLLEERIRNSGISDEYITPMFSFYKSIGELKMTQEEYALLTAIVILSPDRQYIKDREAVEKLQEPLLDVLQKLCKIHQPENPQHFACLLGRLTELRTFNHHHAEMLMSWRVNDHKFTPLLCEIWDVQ
Test: Human GST-FXR LBD co-activator interaction assay (HTRF)
Format: biochemical
Settings: GST-FXR LBD / biotin-SRC-1 peptide FRET; response relative to GW4064; read-out: FXR Co-activator interaction assay (EC50)
Description: Human GST-FXR LBD Co-activator interaction Assay. The FXR HTRF assay is a biochemical assay measuring the interaction between FXR and a coactivator protein (SRC1). […] The ligand-dependent interaction between GST-FXR LBD and a peptide derived from Steroid Receptor Coactivator-1 (SRC-1) was monitored by Fluorescence Resonance Energy Transfer (FRET). […] A negative control (without Streptavidin-XL665) was run with each assay and represented the background fluorescence. […]
I'd appreciate it if you marked entries TRUE when EC50 is lower than 30 nM and FALSE when it is not.

Worked cases, answers included:
COMPOUND: CCOC(=O)c1ccc2nc(N3C4CC[C@H]3CC(OCc3c(-c5ccccc5OC(F)(F)F)noc3C3CC3)C4)sc2c1 (stereo partly shown) [Example 3A]
CAT: TRUE
--
COMPOUND: O=C(O)Cc1ccc(N2C3CC[C@H]2C[C@H](OCc2c(-c4ccccc4OC(F)(F)F)noc2C2CC2)C3)nc1 [Example 19-1B]
CAT: FALSE

Data request: Is EC50 of COC(=O)c1cc(F)c(N2C3CC[C@H]2CC(OCc2c(-c4ccccc4OC(F)(F)F)noc2C2CC2)C3)c(F)c1 (stereo partly shown) [Example 24-1A] strictly below 30 nM?
Data returned: FALSE

Data request: Also check O=C(O)c1cccc(N2C3CC[C@H]2C[C@H](OCc2c(-c4ccccc4OC(F)(F)F)noc2C2CC2)C3)n1 [Example 19-7B]
Data returned: TRUE

Data request: Also check O=C(O)c1cc(F)c2nc(N3[C@@H]4CC[C@H]3C[C@@H](OCc3c(C5CCCC5)noc3C3CC3)C4)sc2c1 [Example 29-3]
Data returned: TRUE

Data request: Also check O=C(O)c1ccc2nc(N3C4CC[C@H]3CC(OCc3c(-c5ccccc5C(F)(F)F)noc3C3CC3)C4)ccc2c1 (stereo partly shown) [Example 30-54]
Data returned: TRUE

====

molecular target: human Farnesoid X Receptor (FXR) ligand binding domain (GST-FXR LBD) (Homo sapiens); construct: purchased Invitrogen; test: Human GST-FXR LBD co-activator interaction assay (HTRF); type: biochemical; settings: GST-FXR LBD / biotin-SRC-1 peptide FRET; response relative to GW4064; read-out: FXR Co-activator interaction assay (EC50)
pEC50: −log10 of the molar value.
Returns one of Fulfilled or Not fulfilled; Fulfilled when pEC50 is >= 8.

Worked cases, answers included:
COMPOUND: Cc1cc(C(=O)O)cnc1N1[C@@H]2CC[C@H]1C[C@@H](OCc1c(-c3c(F)cccc3F)noc1C1CC1)C2
CAT: Fulfilled
//
COMPOUND: Cc1cccc(F)c1-c1noc(C2CC2)c1CO[C@H]1C[C@H]2CC[C@@H](C1)N2c1ccc(C(=O)O)c(C)n1
CAT: Not fulfilled
//
COMPOUND: Cc1nc(N2[C@@H]3CC[C@H]2C[C@@H](OCc2c(-c4ccccc4F)noc2C2CC2)C3)ccc1C(=O)O
CAT: Not fulfilled

// switching to the query compound
Data request: Say whether O=C(O)c1cc(F)c(N2C3CC[C@H]2CC(OCc2c(-c4ccccc4C(F)(F)F)noc2C2CC2)C3)c(F)c1 (some centres unmarked) shows pEC50 of 8 or more.
Data returned: Fulfilled

====

molecular target: human Farnesoid X Receptor (FXR) ligand binding domain (GST-FXR LBD) (Homo sapiens); construct: purchased Invitrogen; assay: Human GST-FXR LBD co-activator interaction assay (HTRF); type: biochemical; details: GST-FXR LBD / biotin-SRC-1 peptide FRET; response relative to GW4064; read-out: FXR Co-activator interaction assay (EC50)
ASSAY_METRIC: EC50 (nM)
Give your result in nM as a bare value.

COMPOUND: O=C(O)c1ccnc(N2C3CC[C@H]2C[C@H](OCc2c(-c4ccccc4OC(F)(F)F)noc2C2CC2)C3)n1
MEASURE_UNIT: nM
EC50: 7
--
COMPOUND: O=C(O)c1cnc2ccc(N3C4CC[C@H]3CC(OCc3c(-c5ccccc5OC(F)(F)F)noc3C3CC3)C4)cn12 (some centres unmarked)
MEASURE_UNIT: nM
EC50: 16
--
COMPOUND: O=C(O)c1ccc2nc(N3C4CC[C@H]3C[C@H](OCc3c(C5CCC6(CC5)CC6)noc3C3CC3)C4)sc2c1
MEASURE_UNIT: nM
EC50: 1.3
--
COMPOUND: O=C(O)c1ccnc(N2C3CC[C@H]2CC(OCc2c(-c4ccccc4OC(F)F)noc2C2CC2)C3)n1 (some centres unmarked)
MEASURE_UNIT: nM
EC50: 9
--
COMPOUND: O=C(O)c1cc(F)c2nc(N3C4CC[C@H]3C[C@H](OCc3c(-c5ccccc5OC(F)F)noc3C3CC3)C4)sc2c1
MEASURE_UNIT: nM
EC50: 0.27
--
COMPOUND: COc1cc(C(=O)O)cc2sc(N3C4CC[C@H]3C[C@H](OCc3c(-c5c(F)cccc5F)noc3C3CC3)C4)nc12
MEASURE_UNIT: nM
EC50: 0.3
--
COMPOUND: Cc1cc(C(=O)O)nc(N2C3CC[C@H]2CC(OCc2c(-c4ccccc4OC(F)F)noc2C2CC2)C3)n1 (some centres unmarked)
MEASURE_UNIT: nM
EC50: 5
--
COMPOUND: O=C(O)c1cnc(N2C3CC[C@H]2CC(OCc2c(-c4ccccc4OC(F)F)noc2C2CC2)C3)cn1 (some centres unmarked) [Example 22-11B]
MEASURE_UNIT: nM
EC50: 10
--
COMPOUND: O=C(O)c1cnc(N2C3CC[C@H]2CC(OCc2c(-c4ccccc4C(F)(F)F)noc2C2CC2)C3)nc1 (some centres unmarked)
MEASURE_UNIT: nM
EC50: 10
--
COMPOUND: CCOC(=O)c1ccc2nc(N3C4CC[C@H]3C[C@H](OCc3c(-c5ccccc5C(F)(F)F)noc3C3CC3)C4)sc2c1
MEASURE_UNIT: nM
EC50: 63

Data request: Returns the measured EC50 for the input compound. Input: COc1cc(C(=O)O)cc2sc(N3C4CC[C@H]3CC(OCc3c(-c5cccc(F)c5F)noc3C3CC3)C4)nc12 (some centres unmarked)
Data returned: 7

Data request: Also check COc1cc(C(=O)O)cc2sc(N3C4CC[C@H]3C[C@H](OCc3c(C5CCC6(CC5)CC6)noc3C3CC3)C4)nc12
Data returned: 0.67

Data request: Also check O=C(O)c1ccc(N2C3CC[C@H]2CC(OCc2c(-c4ccc(F)cc4F)noc2C2CC2)C3)nc1 (some centres unmarked)
Data returned: 57

Data request: Also check CCOC(=O)c1ccc2nc(N3C4CC[C@H]3C[C@H](OCc3c(-c5ccccc5OC(F)F)noc3C3CC3)C4)sc2c1
Data returned: 51
